- targetEntity: Protein skinhead-1 (Caenorhabditis elegans, UniProt P34707)
- Type: functional
Calls of active or inactive are those of the source.
Write down one outcome, taken from active, inactive

Worked set:
Status in this test for `O=C(/C=C/Nc1ccccc1F)c1cccs1` ?
active

Another: `O=C(/C=C/Nc1ccc(F)cc1F)c1ccco1`
active

More entries:
Status in this test for `Cc1cccc(Nc2nc(-c3cccs3)cs2)n1` ?
inactive

Another: COC(=O)CNC(c1ccccc1Cl)c1cc(Br)ccc1NC(=O)CCN1CCOCC1 (centres undefined)
inactive

###

- targetEntity: Large T antigen (Simian virus 40);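 also: Confirmatory-stage PubChem screen for compounds that inhibit SV40 T antigen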
- Sequence (P03070 whole entry): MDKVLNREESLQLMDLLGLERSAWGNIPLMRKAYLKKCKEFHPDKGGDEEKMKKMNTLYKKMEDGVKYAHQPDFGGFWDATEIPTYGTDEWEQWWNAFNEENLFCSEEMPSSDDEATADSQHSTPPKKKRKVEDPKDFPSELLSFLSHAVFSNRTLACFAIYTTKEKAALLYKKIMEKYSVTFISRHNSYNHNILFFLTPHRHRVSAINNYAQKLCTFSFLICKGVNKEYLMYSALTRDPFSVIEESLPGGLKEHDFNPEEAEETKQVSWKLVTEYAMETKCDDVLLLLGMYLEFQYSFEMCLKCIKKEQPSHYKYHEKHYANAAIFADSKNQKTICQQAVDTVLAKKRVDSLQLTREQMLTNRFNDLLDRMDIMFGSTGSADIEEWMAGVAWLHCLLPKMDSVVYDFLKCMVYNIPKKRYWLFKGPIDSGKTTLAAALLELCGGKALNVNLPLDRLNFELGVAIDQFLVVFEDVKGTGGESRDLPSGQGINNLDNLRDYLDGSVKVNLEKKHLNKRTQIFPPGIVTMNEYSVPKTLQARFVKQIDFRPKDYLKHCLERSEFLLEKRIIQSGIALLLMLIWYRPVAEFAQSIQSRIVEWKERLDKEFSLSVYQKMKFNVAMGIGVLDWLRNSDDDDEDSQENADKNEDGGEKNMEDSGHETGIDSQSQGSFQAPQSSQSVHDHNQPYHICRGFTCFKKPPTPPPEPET
- Assay type: functional, Betapolyomavirus macacae
The source made the active and inactive calls.
parameter: IC50

IC50 lookup needed for `COc1cc(-c2cc(=O)c3c(O)c(OC)c(OC)c(O)c3o2)ccc1O` , thanks.
6.77 µM (active)

Another: `c1coc(-c2nc(-c3ccco3)c(-c3ccco3)nc2-c2ccco2)c1`
76.4 µM (active)

Another: `O=C(N/N=C/c1c[nH]c2ccccc12)c1ccc(O)c(O)c1`
9.13 µM (active)

Please find the next compound below.
IC50 lookup needed for `COc1cc(/C=N/NC(=O)CCn2nc(C)cc2C)ccc1O` , thanks.
15.6 µM (active)

###

A set of compounds tested on Cytochrome P450 2C9 (Homo sapiens, UniProt P11712), with measured AC50:

These solved cases illustrate the format of a correct answer.
AC50 lookup needed for `CC(=O)NN1C(=O)c2ccc(Oc3cccc([N+](=O)[O-])c3)cc2C1=O` , thanks.
31.6 µM (inconclusive)

Another: `NC(=NOC(=O)Cc1ccc(-c2ccccc2)cc1)c1cccc([N+](=O)[O-])c1`
10 µM (inconclusive)

Another: `COc1ccc(NC(=O)OC(C)C)cc1`
14.1 µM (inconclusive)

Another: `O=C(CCS(=O)(=O)c1cccs1)N1CCN(c2ccc(F)cc2)CC1`
2.51 µM (inconclusive)

Another: `CCOC(=O)c1c(C)nc2sc3c(=O)n(-c4ccc(C)cc4)cnc3c2c1-c1ccc(OC)cc1`
0.355 µM (inconclusive)

More entries:
AC50 lookup needed for `COc1ccc(Nc2nc(N)nc(CSc3n[nH]c(-c4ccccc4)n3)n2)cc1` , thanks.
12.6 µM (inconclusive)

Another: CC(=O)SC[C@@H](Cc1ccccc1)C(=O)NCC(=O)OCc1ccccc1 [ECADOTRIL]
3.98 µM (inconclusive)

Another: `CCC(=O)NC(NC(=O)CC)C(Cl)Cl`
20 µM (inconclusive)

###

Quick reference for IC50 among some compounds
- targetEntity: Apoptotic protease-activating factor 1 (Homo sapiens, UniProt O14727)
- Sequence (O14727 whole entry): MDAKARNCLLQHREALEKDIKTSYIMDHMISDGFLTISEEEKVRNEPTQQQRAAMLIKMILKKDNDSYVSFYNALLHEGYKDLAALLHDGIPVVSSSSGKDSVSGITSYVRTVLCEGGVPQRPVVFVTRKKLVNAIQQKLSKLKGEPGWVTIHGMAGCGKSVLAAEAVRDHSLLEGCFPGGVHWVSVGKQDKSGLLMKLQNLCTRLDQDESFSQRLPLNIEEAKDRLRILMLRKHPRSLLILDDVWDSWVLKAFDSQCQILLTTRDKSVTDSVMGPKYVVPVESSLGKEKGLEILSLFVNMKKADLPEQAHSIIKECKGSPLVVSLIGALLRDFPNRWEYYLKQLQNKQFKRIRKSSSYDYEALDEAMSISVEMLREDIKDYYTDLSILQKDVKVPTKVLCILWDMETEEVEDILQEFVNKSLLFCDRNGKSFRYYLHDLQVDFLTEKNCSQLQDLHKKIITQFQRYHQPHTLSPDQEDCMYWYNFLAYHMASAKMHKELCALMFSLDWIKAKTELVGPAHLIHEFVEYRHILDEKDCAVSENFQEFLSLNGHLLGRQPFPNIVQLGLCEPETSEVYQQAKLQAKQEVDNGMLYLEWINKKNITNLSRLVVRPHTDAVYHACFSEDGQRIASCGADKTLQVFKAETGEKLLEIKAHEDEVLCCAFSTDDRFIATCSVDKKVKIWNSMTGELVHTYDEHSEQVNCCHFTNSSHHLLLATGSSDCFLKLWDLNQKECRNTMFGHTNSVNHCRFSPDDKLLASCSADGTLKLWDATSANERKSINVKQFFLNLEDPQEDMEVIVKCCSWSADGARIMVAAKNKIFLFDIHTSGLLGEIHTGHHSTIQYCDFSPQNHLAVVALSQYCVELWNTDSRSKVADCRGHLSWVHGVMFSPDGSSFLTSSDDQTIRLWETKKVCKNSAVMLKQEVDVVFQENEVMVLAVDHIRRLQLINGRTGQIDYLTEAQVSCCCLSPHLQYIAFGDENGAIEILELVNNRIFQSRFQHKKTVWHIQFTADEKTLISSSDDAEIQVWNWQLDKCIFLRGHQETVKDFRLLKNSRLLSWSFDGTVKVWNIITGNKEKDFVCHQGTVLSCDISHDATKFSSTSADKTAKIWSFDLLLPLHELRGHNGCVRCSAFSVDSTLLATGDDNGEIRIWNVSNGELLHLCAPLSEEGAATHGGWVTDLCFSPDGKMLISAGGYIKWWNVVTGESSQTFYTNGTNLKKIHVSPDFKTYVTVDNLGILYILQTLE
- Format: functional
Calls of active or inactive are those of the source.

IC50 lookup needed for `CCOc1cc(/C=C/C(=O)Nc2ccc(C(=O)NCCN(CC)CC)cc2)ccc1OCC(C)C` , thanks.
28.5 µM (active)

Another: Cc1[nH]n(-c2ccccc2)c(=O)c1/C=N\NC(=O)C1COc2ccccc2O1 (stereo not given)
8.83 µM (active)

Another: `O=C1Cc2ccccc2C(=O)N1Cc1ccccc1`
3.89 µM (active)

Another: `O=C(O)c1cccc(NC2=C(n3nnc4ccccc43)C(=O)c3ccccc3C2=O)c1`
10.9 µM (active)

Please find the next compound below.
IC50 lookup needed for `Cc1nn(-c2ccccc2)c(O)c1/C=N/NC(=O)c1ccoc1C` , thanks.
11.2 µM (active)

###

- targetEntity: UniProtKB P61088
- Sequence (P61088 whole entry): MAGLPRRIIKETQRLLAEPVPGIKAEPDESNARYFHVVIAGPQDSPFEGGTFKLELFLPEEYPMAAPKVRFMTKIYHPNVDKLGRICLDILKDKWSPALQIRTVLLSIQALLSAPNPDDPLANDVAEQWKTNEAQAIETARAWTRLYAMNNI
- Format: functional
Activity calls are given as the source filed them.
Write down one outcome, taken from active, inactive

Status in this test for `COC(=O)C1=C(C)N(Cc2ccccc2)C(NCc2cc(OC)c(OC)c(OC)c2)=N[C@H]1c1ccc(Br)cc1` ?
inactive

Another: `COC(=O)c1ccc(Cn2c(O)c(/N=N/C(=N)S)c3ccccc32)o1`
active

Another: `O=C(NNC(=O)c1nn(-c2ccc(F)cc2)ccc1=O)c1ccccc1Cl`
active

More entries:
Status in this test for `c1coc(-c2nc(-c3ccco3)c(-c3ccco3)nc2-c2ccco2)c1` ?
active

Another: `CCOC(=O)C1=C(c2ccccc2)O/C(=C(\C(=O)OC)C(F)(F)F)S1`
inactive

Another: `O=C1NC2(CCCCCC2)N=C1c1ccc(Br)cc1`
inactive

Another: `C#CCOCCOCCOCCNc1nc(N2CCOCC2)nc(N2CCN(C(=O)CCCCCCCCCCNC(=O)[C@H](CO)n3cc(CCCCCN)nn3)CC2)n1`
inactive

###

- targetEntity: Protein skinhead-1 (Caenorhabditis elegans)
- Sequence (P34707 whole entry): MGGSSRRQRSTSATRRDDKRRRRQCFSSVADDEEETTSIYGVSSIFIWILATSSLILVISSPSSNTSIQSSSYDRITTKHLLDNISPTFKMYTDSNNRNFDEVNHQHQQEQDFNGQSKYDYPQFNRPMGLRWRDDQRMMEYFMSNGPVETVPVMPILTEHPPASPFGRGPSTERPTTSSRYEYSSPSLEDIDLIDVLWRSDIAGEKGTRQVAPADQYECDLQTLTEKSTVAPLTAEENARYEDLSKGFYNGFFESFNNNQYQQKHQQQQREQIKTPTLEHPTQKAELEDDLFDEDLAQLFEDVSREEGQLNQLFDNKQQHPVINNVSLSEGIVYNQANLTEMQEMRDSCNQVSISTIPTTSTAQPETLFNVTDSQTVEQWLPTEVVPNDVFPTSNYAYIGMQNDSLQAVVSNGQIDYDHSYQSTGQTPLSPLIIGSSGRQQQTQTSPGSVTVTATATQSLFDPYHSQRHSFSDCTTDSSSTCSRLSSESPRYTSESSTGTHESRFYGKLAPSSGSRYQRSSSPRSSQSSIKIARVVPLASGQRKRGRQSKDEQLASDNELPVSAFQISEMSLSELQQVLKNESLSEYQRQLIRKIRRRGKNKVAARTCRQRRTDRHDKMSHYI
- Assay type: functional
The source made the active and inactive calls.
parameter: IC50

These solved cases illustrate the format of a correct answer.
IC50 lookup needed for `O=C(c1cccs1)c1ccc(-c2cccs2)s1` , thanks.
26.5 µM (active)

Another: `O=C(C=Cc1ccco1)c1ccc2ccccc2c1`
9.38 µM (active)

Another: `COC(=O)c1c2c(nc3ccccc13)CCC2`
> 100 µM (inactive)

Another: Cc1ccc(-c2nnn(CC(=O)NCC3COCCO3)n2)o1 (stereo not given)
> 100 µM (inactive)

Please find the next compound below.
IC50 lookup needed for `Nc1cccc2c1C(=O)c1ccc(Cl)cc1C2=O` , thanks.
> 100 µM (inactive)
